- TARGET_UNDER_TEST: HLA-A*02:01
- TEST_DETAILS: IEDB peptide-MHC binding, purified MHC/competitive/radioactivity; filed as Kd, often an IC50 or EC50 that approximates it; bounds were set here for any values at or beyond the usual limits of such assays
- CONDITION_SET: source organism: Plasmodium falciparum 3D7
QUANTITY_MEASURED: pKd
Note: pKd values are expressed as the negative base-10 logarithm of concentration in M.

Give the measured pKd of ATYGIIVPV .
8.49

# iterate: VLFLQMMNV
7.51

# iterate: LLNESNIFL
7.37

# iterate: FLVFLVFSNV
6.57

# iterate: NQMIFVSSI
6.60

# iterate: YQDPQNYEL
7.10

====

- TARGET_UNDER_TEST: HLA-A*02:02
- TEST_DETAILS: IEDB peptide-MHC binding, purified MHC/competitive/radioactivity; filed as Kd, often an IC50 or EC50 that approximates it; bounds were set here for any values at or beyond the usual limits of such assays
- CONDITION_SET: source organism: Plasmodium falciparum 3D7
Provide the reported pKd of each item.
Note: pKd values are expressed as the negative base-10 logarithm of concentration in M.

Give the measured pKd of FLVFLVFSNV .
6.67

# iterate: NILIVLYYL
5.79

# iterate: FMNRFYITT
7.74

# iterate: RLPVICSFLV
8.60

# iterate: NQMIFVSSI
7.68

# iterate: RLFEESLGI
8.72

# iterate: LLNESNIFL
8.60

# iterate: VICSFLVFLV
6.38

# iterate: YQDPQNYEL
7.74

# iterate: ATYGIIVPV
8.70

# iterate: VLFLQMMNV
8.74

====

Provide the reported pKd of each item.
- TARGET_UNDER_TEST: HLA-A*68:02
- TEST_DETAILS: IEDB peptide-MHC binding, purified MHC/competitive/radioactivity; filed as Kd, often an IC50 or EC50 that approximates it; bounds were set here for any values at or beyond the usual limits of such assays
- CONDITION_SET: source organism: Plasmodium falciparum 3D7
Note: pKd values are expressed as the negative base-10 logarithm of concentration in M.

Give the measured pKd of VICSFLVFLV .
5.71

# iterate: RLFEESLGI
6.38

# iterate: FMNRFYITT
5.18

# iterate: VLFLQMMNV
6.49

# iterate: FLVFLVFSNV
5.27

# iterate: LLNESNIFL
5.35

# iterate: NQMIFVSSI
6.70

# iterate: RLPVICSFLV
5.04

# iterate: ATYGIIVPV
7.68

====

Provide the reported Kd of each item.
- TARGET_UNDER_TEST: HLA-A*11:01
- TEST_DETAILS: IEDB peptide-MHC binding, purified MHC/competitive/radioactivity; filed as Kd, often an IC50 or EC50 that approximates it; bounds were set here for any values at or beyond the usual limits of such assays
- CONDITION_SET: source organism: Plasmodium falciparum 3D7
Give your result in nM as a bare value.

Give the measured Kd of FISFYLINK .
9

# iterate: ALKISQLQK
96

# iterate: HLNIPIGFK
1.3

# iterate: VVCSMEYKK
54

# iterate: IALLIIPPK
108

# iterate: AFLESQSMNK
1090

# iterate: SQVSNSDSYK
83

# iterate: SSPLFNNFYK
0.74

# iterate: EQRLPLLPK
765

# iterate: NIFLRFIPDK
2120

# iterate: KILIKIPVTK
60

# iterate: GTMYILLKK
1.2

# iterate: AVSEIQNNK
11

# iterate: SSFDIKSEVK
19

# iterate: IIALLIIPPK
5.3

# iterate: IFLRFIPDK
1280

# iterate: YQNFQNADK
177

# iterate: KINSNFLLK
6.4

# iterate: QQNQESKIMK
77

# iterate: LFDKDTFFK
167

# iterate: SISGKYDIK
50

# iterate: PVLTSLFNK
25

# iterate: MQSSFFMNR
1.1

# iterate: ALERLLSLKK
822

# iterate: LQMMNVNLQK
7.2

# iterate: IFISFYLINK
1060
